The reported measurements were obtained from patent US10406207B2.

Molecular target: human CCK-B R (Homo sapiens, UniProt P32239)
Construct: expressed in transfected cells
Sequence (P32239 1-447): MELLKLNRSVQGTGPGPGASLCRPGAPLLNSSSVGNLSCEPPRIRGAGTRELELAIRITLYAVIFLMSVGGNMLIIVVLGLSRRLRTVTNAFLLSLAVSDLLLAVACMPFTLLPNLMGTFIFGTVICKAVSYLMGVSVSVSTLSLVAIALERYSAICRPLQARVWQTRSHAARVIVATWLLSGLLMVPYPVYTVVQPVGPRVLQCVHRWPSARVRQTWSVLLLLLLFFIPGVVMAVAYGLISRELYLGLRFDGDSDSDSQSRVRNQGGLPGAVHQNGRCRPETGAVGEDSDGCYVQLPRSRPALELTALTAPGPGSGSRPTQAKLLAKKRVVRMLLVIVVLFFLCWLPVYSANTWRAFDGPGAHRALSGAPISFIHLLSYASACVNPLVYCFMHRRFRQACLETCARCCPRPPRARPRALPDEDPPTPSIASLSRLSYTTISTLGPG
Experiment: Human CCK-B receptor efficacy assay (AlphaScreen SureFire p-ERK)
Assay type: cell-based
Conditions: Table 2; read-out: hCCK-B R EC50
measure: pEC50
Quick note: pEC50 means taking -log10 of the concentration in moles per liter.

H-HGEGTFTSELSKYLEEEAVRLFIEFLKWLDF-NH2 [Compound 96]	6.68

Consider the additional substance presented here.
Ask: Need pEC50, item H-HGEGTFTSELSKYLEEEAVRLFIEFLKYGWLDF-NH2 [Compound 101]
Result: 7.52
